Values were extracted from patent US20260151494A1.

Target: T1, human CD71 extracellular domain (human, UniProt P02786 89-760, biotinylated)
T1 construct: also called hCD71; CD71-ECD
T1 sequence (P02786 89-760): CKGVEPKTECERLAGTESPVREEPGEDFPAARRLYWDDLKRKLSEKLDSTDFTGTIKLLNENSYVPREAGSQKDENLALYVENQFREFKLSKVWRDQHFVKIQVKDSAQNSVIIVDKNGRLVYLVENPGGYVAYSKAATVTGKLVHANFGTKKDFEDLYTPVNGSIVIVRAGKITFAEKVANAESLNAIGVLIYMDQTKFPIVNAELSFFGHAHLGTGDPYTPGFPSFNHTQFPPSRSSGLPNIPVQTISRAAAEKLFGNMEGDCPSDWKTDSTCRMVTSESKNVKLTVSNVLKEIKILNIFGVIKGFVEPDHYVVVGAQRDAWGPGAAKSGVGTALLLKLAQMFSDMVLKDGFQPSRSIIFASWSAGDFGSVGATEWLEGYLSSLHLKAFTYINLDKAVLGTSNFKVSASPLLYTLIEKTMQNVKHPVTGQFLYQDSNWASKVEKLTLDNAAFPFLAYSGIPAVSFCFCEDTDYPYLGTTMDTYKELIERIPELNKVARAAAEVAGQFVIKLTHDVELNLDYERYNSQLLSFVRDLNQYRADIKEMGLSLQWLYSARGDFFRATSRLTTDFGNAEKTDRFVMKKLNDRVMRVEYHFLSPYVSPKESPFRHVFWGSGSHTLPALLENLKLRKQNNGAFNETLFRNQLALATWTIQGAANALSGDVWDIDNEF
Experiment: primary ELISA; also: test concentration or dose not given here
outcome measure: RLU (RLU)
Please state the figure in RLU; there is no need to write the unit.

For the binder shown here, CD71-binding FN3 domain of SEQ ID NO: 490 (designed binder) MLPAPKNLVVSRVTEDSARLSWTAPDAAFDSFFIGYLEPQPPGEAISLQVPGSERSYDLTGLKPGTEYNVTIQGVKGGFPSAPLVANFTT , give the reported RLU.
4.15e+06

Thanks! And CD71-binding FN3 domain of SEQ ID NO: 446 (designed binder) MLPAPKNLVVSRVTEDSARLSWTAPDAAFDSFFIGYLEPQPPGEAIQLFVPGSERSYDLTGLKPGTEYNVTIQGVKGGFPSLPLIAYFTT ?
4.75e+06
